# Experimental Target: ABCC4 (Homo sapiens)
# Sequence (O15439 whole entry): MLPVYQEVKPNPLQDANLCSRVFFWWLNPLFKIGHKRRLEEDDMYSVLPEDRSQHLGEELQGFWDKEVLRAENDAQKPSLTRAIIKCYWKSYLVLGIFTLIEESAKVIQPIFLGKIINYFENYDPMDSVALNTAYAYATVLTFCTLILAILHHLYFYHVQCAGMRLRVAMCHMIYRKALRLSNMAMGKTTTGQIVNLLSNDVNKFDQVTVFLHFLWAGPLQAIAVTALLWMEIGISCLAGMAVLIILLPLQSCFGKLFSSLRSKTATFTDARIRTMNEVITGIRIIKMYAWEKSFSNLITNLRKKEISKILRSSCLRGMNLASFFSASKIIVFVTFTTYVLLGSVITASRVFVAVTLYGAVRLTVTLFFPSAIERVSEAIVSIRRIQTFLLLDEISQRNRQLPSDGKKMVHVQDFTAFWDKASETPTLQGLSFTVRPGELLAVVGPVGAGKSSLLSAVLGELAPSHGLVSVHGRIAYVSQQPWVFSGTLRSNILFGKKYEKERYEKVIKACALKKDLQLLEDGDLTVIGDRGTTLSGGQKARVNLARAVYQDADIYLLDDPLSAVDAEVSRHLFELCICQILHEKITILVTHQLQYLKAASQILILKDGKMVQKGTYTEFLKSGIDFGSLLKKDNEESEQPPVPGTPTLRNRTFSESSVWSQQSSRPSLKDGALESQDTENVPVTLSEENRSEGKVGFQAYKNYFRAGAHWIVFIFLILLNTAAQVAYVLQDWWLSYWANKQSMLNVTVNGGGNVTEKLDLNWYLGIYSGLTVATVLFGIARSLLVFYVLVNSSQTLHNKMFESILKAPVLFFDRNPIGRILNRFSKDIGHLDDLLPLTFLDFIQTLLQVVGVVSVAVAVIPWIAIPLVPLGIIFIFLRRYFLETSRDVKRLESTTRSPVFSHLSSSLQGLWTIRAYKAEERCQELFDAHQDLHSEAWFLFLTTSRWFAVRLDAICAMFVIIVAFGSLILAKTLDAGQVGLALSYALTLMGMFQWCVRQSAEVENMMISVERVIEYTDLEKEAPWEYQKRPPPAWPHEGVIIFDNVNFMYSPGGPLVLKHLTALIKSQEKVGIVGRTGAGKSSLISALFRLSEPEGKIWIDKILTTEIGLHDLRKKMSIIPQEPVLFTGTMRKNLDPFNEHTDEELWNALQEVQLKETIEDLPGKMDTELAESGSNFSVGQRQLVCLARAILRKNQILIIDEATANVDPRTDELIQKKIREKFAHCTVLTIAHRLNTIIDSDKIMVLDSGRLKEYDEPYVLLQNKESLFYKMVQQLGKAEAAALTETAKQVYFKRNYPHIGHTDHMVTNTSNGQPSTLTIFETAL
# Assay Protocol: biochemical
# Type: biochemical
# Experimental Context: 28°C; cAMP-efflux, inside-out vesicles, 20 µM 3H-cAMP, 60 min; read-out: ABCC4 IC50
Metric: pIC50
Recall that pIC50 is obtained by taking minus log10 of the concentration measured in molar.

Kindly indicate its recorded pIC50. Item: Nc1cc(-c2ccncc2)c[nH]c1=O [Amrinone]
5.07

---

# Experimental Target: ABCC4 (Homo sapiens)
# Assay Protocol: biochemical
# Type: biochemical
# Experimental Context: 28°C; Table 3; read-out: ABCC5 Ki (Table 3)
Metric: Ki (µM)
The figure you give is taken to be in µM; do not add the unit.

Kindly indicate its recorded Ki. Item: `C[C@@H]1CC(=O)NN=C1c1ccc(NN=C(C#N)C#N)cc1`
16.5
